System: Staphylococcus aureus
MEASUREMENT NOTES: microbe, parasite or virus in culture
Format: functional
CONDITIONS: USA300, time 18 hrs
Description: Antibacterial activity against methicillin-resistant Staphylococcus aureus USA300 assessed as inhibition of visible growth of bacteria incubated for 18 hrs by absorbance based analysis
# log10(MIC) listing for each entry below
Plainly stated, the numbers are log10 of MIC given in µg/mL.

Here is how some compounds turned out for log10(MIC).
[[record]]
chemical_string = "CC[C@H]1OC(=O)[C@H](C)[C@@H](O[C@H]2C[C@@](C)(OC)[C@@H](O)[C@H](C)O2)[C@H](C)[C@@H](O[C@@H]2O[C@H](C)C[C@H](N(C)C)[C@H]2O)[C@](C)(O)C[C@@H](C)C(=O)[C@H](C)[C@@H](O)[C@]1(C)O"
test_value = 0.90

[[record]]
chemical_string = "Cc1onc(-c2ccccc2)c1C(=O)N[C@@H]1C(=O)N2[C@@H]1SC(C)(C)[C@@H]2C(=O)O"
test_value = -0.60

[[record]]
chemical_string = "CC[C@H](C)[C@H]1C(=O)N([C@H](C)c2cccc3ccccc23)C[C@@H]2N(C(=O)NCCCC(F)(F)F)CCC(=O)N12"
test_value = 0.00

[[record]]
chemical_string = "O=C1C2=C(CCN(Cc3ccccc3)C2)N2CCN=C2N1Cc1ccc(C(F)(F)F)cc1"
test_value = -0.30

[[record]]
chemical_string = "CC[C@H](C)[C@H]1C(=O)N(Cc2ccc(OC)c3ccccc23)C[C@@H]2N(C(=O)NCCCC(F)(F)F)CCC(=O)N12"
test_value = -1.22


Moving on to another compound below.
Endpoint output: log10(MIC) of CCn1cc(C(=O)O)c(=O)c2cc(F)c(N3CCNCC3)cc21 . Value?
1.20

###

TARGET OF ASSAY: ATP-dependent Clp protease proteolytic subunit (Staphylococcus aureus (strain NCTC 8325))
MEASUREMENT NOTES: Agonist activity at Staphylococcus aureus ClpP extracted from Escherichia coli BL21 (DE3) cells using alpha-casein as substrate assessed as substrate hydrolysis preincubated for 15 mins followed by substrate addition and measured after 2 hrs by SDS-PAGE analysis
ATTRIBUTE MEASURED: pEC50
Just the number, please; pEC50 means minus log10 of the concentration in mol/L.

[[record]]
chemical_string = "C=CC[C@H]1C(=O)N(Cc2cccc3ccccc23)C[C@@H]2N(C(=O)NCCCC(F)(F)F)CCC(=O)N21"
target_of_assay = "ATP-dependent Clp protease proteolytic subunit (Staphylococcus aureus (strain NCTC 8325))"
test_value = 5.85

[[record]]
chemical_string = "O=C1[C@H](Cc2ccccc2)N2C(=O)CCN(C(=O)NCc3ccccc3)[C@H]2CN1Cc1cccc2ccccc12"
target_of_assay = "ATP-dependent Clp protease proteolytic subunit (Staphylococcus aureus (strain NCTC 8325))"
test_value = 5.54

[[record]]
chemical_string = "O=C1[C@H](CO)N2C(=O)CCN(C(=O)NCc3ccccc3)[C@H]2CN1Cc1cccc2ccccc12"
target_of_assay = "ATP-dependent Clp protease proteolytic subunit (Staphylococcus aureus (strain NCTC 8325))"
test_value = 5.35

[[record]]
chemical_string = "CC[C@H](C)[C@H]1C(=O)N(Cc2cccc3ccccc23)C[C@@H]2N(C(=O)NCCc3ccco3)CCC(=O)N12"
target_of_assay = "ATP-dependent Clp protease proteolytic subunit (Staphylococcus aureus (strain NCTC 8325))"
test_value = 5.28


Switching to the query record.
Provide value of pEC50 for this record tested with ATP-dependent Clp protease proteolytic subunit (Staphylococcus aureus (strain NCTC 8325)): O=C1[C@H](CC2CC2)N2C(=O)CCN(C(=O)NCCCC(F)(F)F)[C@H]2CN1Cc1cccc2ccccc12
5.46

###

MEASUREMENT NOTES: Octanol/water partition coefficient, log P of the compound at pH 7.4 incubated for 24 hrs by LC-MS analysis
Format: physicochemical
ATTRIBUTE MEASURED: logD at 24 h
Field format: numeric only.

Given the molecule O=C1[C@H](Cc2cnc[nH]2)N2C(=O)CCN(C(=O)NCc3ccccc3)[C@H]2CN1Cc1cccc2ccccc12 , what is its reported logD at 24 h?
3.09

###

System: Staphylococcus aureus
MEASUREMENT NOTES: microbe, parasite or virus in culture
Format: functional
CONDITIONS: time 18 hrs
Description: Antibacterial activity against multidrug-resistant Staphylococcus aureus clinical isolate XJ051 assessed as inhibition of visible growth of bacteria incubated for 18 hrs by absorbance based analysis
# key: entry, value: MIC
Please reply with the bare figure in µg/mL and do not write the unit itself.

[[record]]
chemical_string = "CC1(C)S[C@@H]2[C@H](NC(=O)[C@H](N)c3ccccc3)C(=O)N2[C@H]1C(=O)O"
test_value = 128


Then this compound:
What does the data say about its MIC? Entry: O=C1C2=C(CCN(Cc3ccccc3)C2)N2CCN=C2N1Cc1ccc(C(F)(F)F)cc1
0.5

###

TARGET OF ASSAY: ATP-dependent Clp protease proteolytic subunit (Staphylococcus aureus (strain NCTC 8325), UniProt Q2G036)
MEASUREMENT NOTES: Agonist activity at Staphylococcus aureus ClpP extracted from Escherichia coli BL21 (DE3) cells using alpha-casein as substrate assessed as substrate hydrolysis preincubated for 15 mins followed by substrate addition and measured after 2 hrs by SDS-PAGE analysis
Recorded EC50 values for a group of molecules are listed next.
Give a bare numeral; the unit nM is implied.

[[record]]
molecule = "O=C1[C@H](CC2CCC2)N2C(=O)CCN(C(=O)NCCCC(F)(F)F)[C@H]2CN1Cc1cccc2ccccc12"
measurement_units = "nM"
test_value = 2000

[[record]]
molecule = "CC[C@H](C)[C@H]1C(=O)N(Cc2cccc3ccccc23)C[C@@H]2N(C(=O)NCCC(=O)OC)CCC(=O)N12"
measurement_units = "nM"
test_value = 17300

[[record]]
molecule = "CC[C@H](C)[C@H]1C(=O)N(Cc2cc(Cl)cc(Cl)c2)C[C@@H]2N(C(=O)NCCCC(F)(F)F)CCC(=O)N12"
measurement_units = "nM"
test_value = 780

[[record]]
molecule = "C[C@H]1C(=O)N(Cc2cccc3ccccc23)C[C@@H]2N(C(=O)NCc3ccccc3)CCC(=O)N21"
measurement_units = "nM"
test_value = 2500

[[record]]
molecule = "CC[C@H](C)[C@H]1C(=O)N(Cc2ccc(Cl)cc2Cl)C[C@@H]2N(C(=O)NCCCC(F)(F)F)CCC(=O)N12"
measurement_units = "nM"
test_value = 1000


Please give the measured EC50 for this molecule: O=C1[C@H](Cc2ccc(O)cc2)N2C(=O)CCN(C(=O)NCc3ccccc3)[C@H]2CN1Cc1cccc2ccccc12
1100

Repeat for the following molecule: CC(C)[C@H]1C(=O)N(Cc2cccc3ccccc23)C[C@@H]2N(C(=O)NCCCC(F)(F)F)CCC(=O)N12
1600

How about CC[C@H](C)[C@H]1C(=O)N(Cc2ccc(Br)c3ccccc23)C[C@@H]2N(C(=O)NCCCC(F)(F)F)CCC(=O)N12 ?
1940

What would you report for O=C1[C@H](Cc2cnc[nH]2)N2C(=O)CCN(C(=O)NCc3ccccc3)[C@H]2CN1Cc1cccc2ccccc12 ?
500

Subsequent entry: CC[C@H](C)[C@H]1C(=O)N(Cc2cccc3ccccc23)C[C@@H]2N(C(=O)NCCC3CC3)CCC(=O)N12
1900

###

Test system: Staphylococcus aureus
MEASUREMENT NOTES: microbe, parasite or virus in culture
Format: functional
CONDITIONS: NRS-1, time 18 hrs
Description: Antibacterial activity against methicillin-resistant Staphylococcus aureus NRS-1 assessed as inhibition of visible growth of bacteria incubated for 18 hrs by absorbance based analysis
ATTRIBUTE MEASURED: MIC

Reported MIC for CN[C@@H]1[C@@H](O)[C@@H](O[C@@H]2[C@@H](O)[C@H](O[C@H]3O[C@H](CN)CC[C@H]3N)[C@@H](N)C[C@H]2N)OC[C@]1(C)O : what is it?
> 128 µg/mL

Next entry: CC[C@H]1OC(=O)[C@H](C)[C@@H](O[C@H]2C[C@@](C)(OC)[C@@H](O)[C@H](C)O2)[C@H](C)[C@@H](O[C@@H]2O[C@H](C)C[C@H](N(C)C)[C@H]2O)[C@](C)(O)C[C@@H](C)C(=O)[C@H](C)[C@@H](O)[C@]1(C)O
> 128 µg/mL

Check NC[C@H]1O[C@H](O[C@H]2[C@H](O)[C@@H](O[C@H]3O[C@H](CO)[C@@H](O)[C@H](N)[C@H]3O)[C@H](N)C[C@@H]2N)[C@H](O)[C@@H](O)[C@@H]1O too.
> 128 µg/mL

###

TARGET OF ASSAY: ATP-dependent Clp protease proteolytic subunit (Staphylococcus aureus (strain NCTC 8325), UniProt Q2G036)
Sequence (Q2G036 whole entry): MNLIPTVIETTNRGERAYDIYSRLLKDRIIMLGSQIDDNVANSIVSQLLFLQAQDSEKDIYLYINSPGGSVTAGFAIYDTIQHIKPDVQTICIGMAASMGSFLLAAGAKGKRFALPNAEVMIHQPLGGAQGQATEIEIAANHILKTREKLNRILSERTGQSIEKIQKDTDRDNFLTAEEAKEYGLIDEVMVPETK
MEASUREMENT NOTES: Agonist activity at Staphylococcus aureus ClpP extracted from Escherichia coli BL21 (DE3) cells using alpha-casein as substrate assessed as substrate hydrolysis preincubated for 15 mins followed by substrate addition and measured after 2 hrs by SDS-PAGE analysis
Entries whose EC50 is below 2000 nM take yes (1); entries at or above 2000 nM take no (0).

# count of solved cases: 8
[[record]]
compound = "CC(C)C[C@H]1C(=O)N(Cc2cccc3ccccc23)C[C@@H]2N(C(=O)NCCCC(F)(F)F)CCC(=O)N21"
class = "yes (1)"

[[record]]
compound = "CC[C@H](C)[C@H]1C(=O)N(Cc2ccc(OC)c3ccccc23)C[C@@H]2N(C(=O)NCCCC(F)(F)F)CCC(=O)N12"
class = "yes (1)"

[[record]]
compound = "CC[C@H](C)[C@H]1C(=O)N(Cc2cccc3ccccc23)C[C@@H]2N(C(=O)NCCC(C)C)CCC(=O)N12"
class = "yes (1)"

[[record]]
compound = "CC[C@H](C)[C@H]1C(=O)N(Cc2cccc3ccccc23)C[C@@H]2N(C(=O)NCC(C)C)CCC(=O)N12"
class = "no (0)"

[[record]]
compound = "CCCCNC(=O)N1CCC(=O)N2[C@@H]([C@@H](C)CC)C(=O)N(Cc3cccc4ccccc34)C[C@H]12"
class = "yes (1)"

[[record]]
compound = "CC[C@H](C)[C@H]1C(=O)N(Cc2cccc3ccccc23)C[C@@H]2N(C(=O)NCc3ccccc3)CCC(=O)N12"
class = "yes (1)"

[[record]]
compound = "CC[C@H](C)[C@H]1C(=O)N(Cc2cccc3ccccc23)C[C@@H]2N(C(=O)NCCCCCCl)CCC(=O)N12"
class = "no (0)"

[[record]]
compound = "CCCC(C)NC(=O)N1CCC(=O)N2[C@@H]([C@@H](C)CC)C(=O)N(Cc3cccc4ccccc34)C[C@H]12 (some centres undefined)"
class = "no (0)"


Now turn to the next compound.
Please check: EC50 for C#CC[C@H]1C(=O)N(Cc2cccc3ccccc23)C[C@@H]2N(C(=O)NCCCC(F)(F)F)CCC(=O)N21 , strictly under 2000 nM or not?
yes (1)
